Values compiled from patent US9611283B1.

# Assay Target: Ba/F3 cells expressing EML4-ALK 1151 T insertion (Homo sapiens, UniProt Q9UM73, DUP1151-1151)
# Sequence (Q9UM73 with tags, fused parts or gaps DUP1151-1151 limits assumed): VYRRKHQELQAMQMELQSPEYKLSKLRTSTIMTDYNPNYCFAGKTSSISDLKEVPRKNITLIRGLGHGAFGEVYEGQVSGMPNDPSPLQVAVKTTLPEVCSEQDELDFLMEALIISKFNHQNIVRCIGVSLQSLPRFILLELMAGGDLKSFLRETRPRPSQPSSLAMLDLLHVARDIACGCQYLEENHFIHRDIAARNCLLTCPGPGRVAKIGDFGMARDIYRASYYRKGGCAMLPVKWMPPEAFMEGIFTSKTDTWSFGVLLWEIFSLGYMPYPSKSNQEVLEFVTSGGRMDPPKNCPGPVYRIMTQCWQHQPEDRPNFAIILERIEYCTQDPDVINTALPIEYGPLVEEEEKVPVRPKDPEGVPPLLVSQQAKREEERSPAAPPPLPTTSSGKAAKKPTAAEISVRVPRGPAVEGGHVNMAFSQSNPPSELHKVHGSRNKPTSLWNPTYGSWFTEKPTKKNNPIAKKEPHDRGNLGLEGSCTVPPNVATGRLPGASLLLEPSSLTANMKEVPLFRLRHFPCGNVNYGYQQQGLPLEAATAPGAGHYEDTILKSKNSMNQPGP
# Assay Summary: Ba/F3 cellular proliferation assay, EML4-ALK 1151 T insertion
# Measurement Setup: Table 2
Result Type: pIC50
Keep it numeric: pIC50 is minus log10 of the concentration in mol/L.

Briefly, pIC50 measured for COc1cc(N2CCC(N3CCN(C)CC3)CC2)ccc1Nc1ncnc(Nc2ccccc2S(=O)(=O)C(C)C)n1 : 5.23
